Test: fixK promoter GFP reporter activation – B. multivorans, primary screen (AID 1918990)
Details: 18 h, active compounds read high
Out of some 29,000 compounds screened, about 85 (0.3%) were called active. Shown is part of a subset that was picked to be rich in actives.
Recorded endpoint: z-score

Compound: COc1ccc(NC(=O)CSc2nc3ncccc3[nH]2)c(OC)c1
Recorded endpoint: z-score
Recorded result: 1.38 (inactive)
//
Compound: Cc1c(CNC(C)c2ccccc2)c(C(=O)O)c(C)n1Cc1c(F)cccc1Cl (configuration not stated)
Recorded endpoint: z-score
Recorded result: -2.09 (inactive)
//
Compound: COc1cccc(OCCn2c(-c3ccc(Br)cc3)nc3ccccc3c2=O)c1
Recorded endpoint: z-score
Recorded result: -1.26 (inactive)
//
Compound: Cc1c(C(=O)N2CCC3(CC2)OCCCC3O)n(C)c2ccccc12 (configuration not stated)
Recorded endpoint: z-score
Recorded result: -0.28 (inactive)
//
Compound: COc1cc(OC)c(NC(=O)c2c3c(nn2C)-c2ccccc2SC3)cc1Cl
Recorded endpoint: z-score
Recorded result: 1.42 (inactive)
//
Compound: CCc1ccccc1N1CC(c2nc3ccccc3n2CCCCOc2ccccc2)CC1=O (configuration not stated)
Recorded endpoint: z-score
Recorded result: 5.94 (active)
//
Compound: COC(=O)c1c(NC(=O)c2cc(=O)c3c(C)cc(C)cc3o2)sc2c1CCCC2
Recorded endpoint: z-score
Recorded result: -1.12 (inactive)
